Target: Luciferin 4-monooxygenase (Photinus pyralis)
Test: qHTS assay to identify small molecule inhibitors of firefly luciferase (AID 1224835); also: nearly all actives have a fitted effect of over 25% in size
Details: purified P. pyralis luciferase, luminescence inhibition; series mostly up to 115 µM
Inconclusive results are not listed. Active and inactive are the calls of the source. Calls follow the shape of the dose curve; as a rule, active = well fitted inhibition curve with a large enough effect in the repeat runs; inconclusive = weak or mixed curves; inactive = flat fitted curve, though single readings scatter.
Give your call using only these classes: TRUE for active, FALSE for inactive

Here are 6 compounds together with their reported answers.
{"columns": ["compound", "assigned.category"],
 "data": [
  ["C#C[C@]1(OC(C)=O)CC[C@H]2[C@@H]3CCC4=C[C@@H](OC(C)=O)CC[C@@H]4[C@H]3CC[C@@]21C", "FALSE"],
  ["Nc1nc(-c2ccccc2)cs1", "TRUE"],
  ["CCCCCCCCCCCCCCCC[N+](C)(C)CC", "FALSE"],
  ["CCCCOC(=O)CC", "FALSE"],
  ["O=C(O)c1cc(-c2ccc(F)cc2F)ccc1O", "TRUE"],
  ["CN1CCN(Cc2cc(-c3ccc4[nH]c(=O)oc4c3)co2)[C@@H](c2ccc(F)cc2)C1", "FALSE"]
]}

-- ask Hi team, can someone confirm the assay call for Cc1cc(C(C)(C)C)cc(C)c1CC1=NCCN1 ?
-- reply FALSE

-- ask Hi team, can someone confirm the assay call for Cc1cc(C(C#N)c2ccc(Cl)cc2)c(Cl)cc1NC(=O)c1cc(I)cc(I)c1O (stereo not drawn) ?
-- reply FALSE

-- ask Hi team, can someone confirm the assay call for CCC(C)(CCC(C)C)C(=O)[O][Sn]([CH3])([CH3])[O]C(=O)C(C)(CC)CCC(C)C (stereo not drawn) ?
-- reply FALSE

-- ask Hi team, can someone confirm the assay call for CC(C)NC[C@@H](O)COc1ccc(CC(N)=O)cc1 ?
-- reply FALSE

-- ask Hi team, can someone confirm the assay call for OC[C@H]1O[C@H](O[C@H]2O[C@H](CO)[C@@H](O)[C@H](O)[C@H]2O)[C@H](O)[C@@H](O)[C@@H]1O ?
-- reply FALSE

-- ask Hi team, can someone confirm the assay call for CCC(CC)C(C)CCOC(C)=O (stereo not drawn) ?
-- reply FALSE

-- ask Hi team, can someone confirm the assay call for O=S(=O)(O)c1ccc(N=Nc2c(O)ccc3ccccc23)cc1 ?
-- reply TRUE

-- ask Hi team, can someone confirm the assay call for OC[C@@H](O)[C@@H](O)CO ?
-- reply FALSE

-- ask Hi team, can someone confirm the assay call for CCc1ccc(Br)cc1 ?
-- reply FALSE

-- ask Hi team, can someone confirm the assay call for COc1ccc2cc1Oc1ccc(cc1)C[C@H]1c3c(cc4c(c3Oc3cc5c(cc3OC)CCN(C)[C@@H]5C2)OCO4)CCN1C ?
-- reply FALSE

-- ask Hi team, can someone confirm the assay call for CC1(C)CCC[C@]2(C)[C@H]3CCO[C@]3(C)CC[C@@H]12 ?
-- reply FALSE

-- ask Hi team, can someone confirm the assay call for O=C1CCCCCCCCCCCCCCCO1 ?
-- reply FALSE

-- ask Hi team, can someone confirm the assay call for O=[N+]([O-])c1ccc(O)cc1C(F)(F)F ?
-- reply FALSE

-- ask Hi team, can someone confirm the assay call for C=C(C)C(=O)OCCCCCCCCCC ?
-- reply FALSE
